target: STAT6 (Homo sapiens, UniProt P42226); construct: These cells express endogenous STAT6; host or cells: HeLa LgBiT clone 4.14; experiment: Stat6 Degrader Assay (HiBiT based, HeLa LgBiT clone 4.14); assay type: cell-based; details: HeLa LgBiT clone 4.14 HiBiT-STAT6, 4-24 h incubation; values given for compounds with >80% Emax; geometric mean; read-out: STAT6 degradation DC50
Sequence (P42226 whole entry): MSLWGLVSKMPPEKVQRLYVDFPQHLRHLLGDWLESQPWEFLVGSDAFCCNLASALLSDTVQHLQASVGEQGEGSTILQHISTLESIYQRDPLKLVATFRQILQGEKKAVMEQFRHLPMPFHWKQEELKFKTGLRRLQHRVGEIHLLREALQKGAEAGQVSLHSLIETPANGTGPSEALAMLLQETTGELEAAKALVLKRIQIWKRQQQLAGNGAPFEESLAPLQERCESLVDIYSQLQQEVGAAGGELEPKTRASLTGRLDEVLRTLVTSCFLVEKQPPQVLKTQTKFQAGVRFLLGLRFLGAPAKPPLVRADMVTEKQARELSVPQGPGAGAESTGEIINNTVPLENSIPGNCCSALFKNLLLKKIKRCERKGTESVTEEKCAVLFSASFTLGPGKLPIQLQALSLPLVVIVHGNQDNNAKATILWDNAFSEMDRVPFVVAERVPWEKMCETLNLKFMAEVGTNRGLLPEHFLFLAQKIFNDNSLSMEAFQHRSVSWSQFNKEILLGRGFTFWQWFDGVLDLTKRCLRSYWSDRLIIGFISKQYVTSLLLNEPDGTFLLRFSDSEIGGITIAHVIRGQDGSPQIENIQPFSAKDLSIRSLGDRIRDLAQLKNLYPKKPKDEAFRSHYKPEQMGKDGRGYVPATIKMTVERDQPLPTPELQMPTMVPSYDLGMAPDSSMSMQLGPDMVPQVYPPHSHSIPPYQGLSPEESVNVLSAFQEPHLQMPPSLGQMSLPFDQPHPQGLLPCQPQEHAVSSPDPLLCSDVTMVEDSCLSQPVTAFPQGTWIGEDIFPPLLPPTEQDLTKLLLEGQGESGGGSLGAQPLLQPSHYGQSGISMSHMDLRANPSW
Recorded endpoint: DC50 (nM)

Here are 2 molecules together with their reported answers.
Molecule	System name	Unit tag	DC50
CNc1ccn(-c2ccnc3c2cc([C@H](C)N2CC=C(c4c(F)cc(C(=O)N5CCC(CN6CCN(Cc7ccc8c(c7)n(C7CC7)c(=O)n8C7CCC(=O)NC7=O)C[C@@H]6C)CC5)cc4F)CC2)n3C)c(=O)c1 (stereo partly shown)	STAT6 (Homo sapiens, UniProt P42226)	nM	0.5
CNc1ccn(-c2ccnc3c2cc([C@H](C)N2CC=C(c4c(C)cc(C(=O)N5CCC(CN6CCN(c7cc8c(cc7F)n([C@@H]7CCC(=O)NC7=O)c(=O)n8C)CC6)CC5)cc4F)CC2)n3C)c(=O)c1 (single isomer, unassigned)	STAT6 (Homo sapiens, UniProt P42226)	nM	0.7

P. CNc1cc(=O)n(-c2ccnc3c2cc([C@H](C)N2CC=C(c4c(C)cc(C(=O)N5CCC(CN6CCN(Cc7cc8c(cc7F)N(C7CCC(=O)NC7=O)C(=O)C87CC7)CC6)CC5)cc4F)CC2)n3C)cc1F (stereo partly shown)
Q. CNc1ccn(-c2ccnc3c2cc([C@H](C)N2CC=C(c4c(C)cc(C(=O)N(C)C5CCN(C6CCN(Cc7ccc8c(c7)n(C)c(=O)n8C7CCC(=O)NC7=O)CC6)CC5)cc4F)CC2)n3C)c(=O)c1 (stereo partly shown)
Lookup: Could you kindly indicate whether P or Q has the higher DC50 value? Field: selected label. Fill in the label of the entry you choose.
Found: Q
